# reported efflux ratio at 10 μM; entries follow
Target: P-glycoprotein (human MDR1) (Homo sapiens, UniProt P08183)
Construct: expressed in transfected cells; host or cells: LLC-GA5-COL300 (LLC-PK1 pig kidney epithelial cells expressing human MDR1)
Sequence (P08183 whole entry): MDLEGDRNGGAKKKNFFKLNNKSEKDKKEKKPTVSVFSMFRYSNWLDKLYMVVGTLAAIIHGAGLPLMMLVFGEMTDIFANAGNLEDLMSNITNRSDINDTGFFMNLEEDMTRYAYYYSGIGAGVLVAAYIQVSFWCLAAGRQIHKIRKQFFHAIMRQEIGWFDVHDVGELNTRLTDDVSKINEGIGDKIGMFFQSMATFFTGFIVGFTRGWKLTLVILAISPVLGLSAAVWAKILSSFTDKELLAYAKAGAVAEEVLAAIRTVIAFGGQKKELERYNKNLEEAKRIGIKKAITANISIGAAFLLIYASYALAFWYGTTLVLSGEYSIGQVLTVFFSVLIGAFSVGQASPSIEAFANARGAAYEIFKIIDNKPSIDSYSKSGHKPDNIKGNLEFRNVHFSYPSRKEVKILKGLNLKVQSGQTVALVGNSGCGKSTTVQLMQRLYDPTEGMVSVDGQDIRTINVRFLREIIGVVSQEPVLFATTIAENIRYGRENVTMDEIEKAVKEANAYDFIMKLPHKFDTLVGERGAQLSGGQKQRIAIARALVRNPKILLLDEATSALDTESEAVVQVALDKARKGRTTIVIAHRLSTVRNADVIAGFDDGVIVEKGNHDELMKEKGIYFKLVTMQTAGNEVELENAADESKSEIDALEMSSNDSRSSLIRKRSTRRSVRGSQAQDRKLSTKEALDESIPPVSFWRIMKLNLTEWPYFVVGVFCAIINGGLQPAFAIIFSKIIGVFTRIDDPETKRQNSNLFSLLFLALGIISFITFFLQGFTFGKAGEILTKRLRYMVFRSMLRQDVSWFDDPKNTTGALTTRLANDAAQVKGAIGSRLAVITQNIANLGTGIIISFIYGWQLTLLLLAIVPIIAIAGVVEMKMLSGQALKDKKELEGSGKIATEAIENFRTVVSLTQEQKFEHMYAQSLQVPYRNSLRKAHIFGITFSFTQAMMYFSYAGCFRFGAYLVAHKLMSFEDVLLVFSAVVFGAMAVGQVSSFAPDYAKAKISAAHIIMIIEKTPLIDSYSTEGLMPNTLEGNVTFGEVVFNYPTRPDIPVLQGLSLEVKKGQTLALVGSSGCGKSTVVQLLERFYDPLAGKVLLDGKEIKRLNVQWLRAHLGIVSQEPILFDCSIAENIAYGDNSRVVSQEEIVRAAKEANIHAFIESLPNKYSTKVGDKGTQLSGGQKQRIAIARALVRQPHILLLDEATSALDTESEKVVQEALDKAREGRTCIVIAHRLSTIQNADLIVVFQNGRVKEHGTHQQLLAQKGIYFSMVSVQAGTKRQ
Assay: P-glycoprotein substrate recognition test (LLC-GA5-COL300 cells, transwell)
Assay type: in vitro ADME
Conditions: LLC-PK1, ratio of membrane permeation coefficients for apical→basal and basal→apical directions
MEASURED METRIC: efflux ratio at 10 μM

molecule="CNC(=O)c1cn(-c2ccc(OC3CCN(C4CCC4)CC3)cc2)nn1 [Compound No. 19]" measured_metric="efflux ratio at 10 μM" result_value=0.7
molecule="O=C(c1cn(-c2ccc(OC3CCN(C4CCC4)CC3)cc2)nn1)N1CCCC1 [Compound No. 8]" measured_metric="efflux ratio at 10 μM" result_value=1
molecule="OCc1cn(-c2ccc(OC3CCN(C4CCC4)CC3)cc2)nn1 [Compound No. 22]" measured_metric="efflux ratio at 10 μM" result_value=1.1
